Biological target: human M4 receptor (Homo sapiens, UniProt P08173)
Construct: expressed in transfected cells; host or cells: CHO cells
Sequence (P08173 whole entry): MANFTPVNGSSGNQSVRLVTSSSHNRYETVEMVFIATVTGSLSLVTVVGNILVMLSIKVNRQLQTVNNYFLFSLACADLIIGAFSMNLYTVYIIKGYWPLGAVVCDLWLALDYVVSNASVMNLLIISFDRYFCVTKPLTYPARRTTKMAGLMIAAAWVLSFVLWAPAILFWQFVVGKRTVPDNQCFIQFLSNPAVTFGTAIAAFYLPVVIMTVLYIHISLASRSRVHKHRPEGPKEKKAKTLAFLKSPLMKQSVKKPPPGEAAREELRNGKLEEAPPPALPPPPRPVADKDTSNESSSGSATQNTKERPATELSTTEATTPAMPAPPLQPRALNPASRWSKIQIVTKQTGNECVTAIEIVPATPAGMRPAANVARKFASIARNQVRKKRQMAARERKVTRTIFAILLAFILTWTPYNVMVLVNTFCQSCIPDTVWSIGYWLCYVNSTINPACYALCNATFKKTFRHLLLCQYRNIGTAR
Assay: Radioligand ([3H]N-methylscopolamine) binding assay, membranes from CHO cells expressing human M4 receptor
Settings: Ki against human M4 receptor; membranes from CHO cells; tritiated N-methylscopolamine 1.5 nM; read-out: K
pKi: −log10 of the molar value.
// reported pKi for each item listed
quantityMeasured: pKi

compound	quantityMeasured	observedMeasurement
C[C@@H]1CN(c2ncc(C(F)(F)F)cn2)C[C@@H](C)N1C(=O)OC1CC2(C1)CN(CCC(C)(C)C)C2 [Compound 145]	pKi	6.00 to 7.00
C[C@@H]1CN(c2cnc(C(F)(F)F)cn2)C[C@H](C)N1C(=O)OC1CC2(C1)CN(Cc1ccccc1)C2 [Compound 141]	pKi	7.00 to 8.00
C[C@@H]1CN(C(=O)NC2CC3(C2)CN(Cc2ccccc2)C3)[C@@H](C)CN1c1cnc(C(F)(F)F)cn1 [Compound 37]	pKi	7.00 to 8.00
C[C@@H]1CN(c2ccc(F)c(C#N)c2)CCN1C(=O)NC1CC2(C1)CN(Cc1ccccc1)C2 [Compound 12]	pKi	7.00 to 8.00
C[C@@H]1CN(c2ncc(C(F)(F)F)cn2)C[C@@H](C)N1C(=O)OC1CC2(C1)CN(Cc1ccccc1)C2 [Compound 139]	pKi	> 8.00
C[C@@H]1CN(c2cnc(C(F)(F)F)cn2)C[C@@H](C)N1C(=O)OC1(C)CC2(CN(Cc3ccccc3)C2)C1 [Compound 356]	pKi	7.00 to 8.00
C[C@@H]1CN(c2cnc3ccccc3n2)[C@@H](C)CN1C(=O)OC1CC2(C1)CN(Cc1ccc(F)cc1)C2 [Compound 394]	pKi	7.00 to 8.00
[2H]c1c([2H])c([2H])c(C([2H])N2CC3(CC(NC(=O)N4[C@H](C)CN(c5ncc(C(F)(F)F)cn5)C[C@@H]4C)C3)C2)c([2H])c1[2H] (some centres unmarked) [Compound 274]	pKi	> 8.00
C[C@@H]1CN(c2cnc(C(F)(F)F)cn2)C[C@@H](C)N1C(=O)OCC1CC2(C1)CN(Cc1ccccc1)C2 [Compound 143]	pKi	6.00 to 7.00
C[C@@H]1CN(c2ncc(C3CC3)cn2)C[C@H](C)N1C(=O)OC1CC2(C1)CN(Cc1ccccc1)C2 [Compound 506]	pKi	> 8.00
CC(c1ccccc1)N1CC2(CC(NC(=O)N3[C@H](C)CN(c4ncc(C(F)(F)F)cn4)C[C@@H]3C)C2)C1 (some centres unmarked) [Compound 334]	pKi	> 8.00
COc1ccc2nc(N3C[C@@H](C)N(C(=O)OC4CC5(C4)CN(Cc4ccc(F)cc4)C5)C[C@@H]3C)cnc2c1 [Compound 396]	pKi	7.00 to 8.00
O=C(OC1CC2(C1)CN(Cc1ccccc1)C2)N1CC2COCC(C1)N2c1ncc(C(F)(F)F)cn1 [Compound 495]	pKi	7.00 to 8.00
C[C@@H]1CN(c2ncc(C#N)cn2)C[C@H](C)N1C(=O)NC1CC2(C1)CN(Cc1ccc(F)cc1)C2 [Compound 330]	pKi	6.00 to 7.00
